src = the Deep4Chem optical property database

# EXPERIMENT: solvent given as SMILES
# STUDY CONDITIONS: in CCO
Some molecules, each annotated with its measured absorption maximum.
# value in nm; strip the unit string

Example cases with answers are listed next.
{"MOLECULE": "COCCOCCOCCOCCOc1ccc(OCCOCCOCCOCCOC)c(C=O)c1", "NUMERIC RESULT": 349}
{"MOLECULE": "O=Cc1ccc(-c2ccc(C3=CCC(c4ccccc4)CC3)s2)s1 (centres undefined)", "NUMERIC RESULT": 389}
{"MOLECULE": "Nc1ccc2nc3c4ccccc4c(=[NH2+])cc-3oc2c1", "NUMERIC RESULT": 600}
{"MOLECULE": "N#C/C(=C\\c1cn(-c2ccccc2)nc1-c1ccccc1)c1nc2ccccc2s1", "NUMERIC RESULT": 380}

Query: For the molecule "CNc1ccc2c(c1)-c1ccccc1C2=O" , give its measured absorption maximum value.
Response: 436

Query: For the molecule "CCN(CC)c1ccc2cc(/C=C(\C#N)c3nc4ccccc4s3)c(=O)oc2c1" , give its measured absorption maximum value.
Response: 511

Query: For the molecule "CC1=[N+]2C(=C(c3c4ccccc4cc4ccccc34)c3ccc(C)n3[B-]2(F)F)C=C1" , give its measured absorption maximum value.
Response: 515

Query: For the molecule "CCN(CC)c1ccc2c(c1)oc(=O)c1c(-c3ccccc3C(=O)O)c3ccc(=[N+](CC)CC)cc-3oc12" , give its measured absorption maximum value.
Response: 591

Query: For the molecule "N#CC(C#N)=C(/C=C/c1cn(-c2ccccc2)nc1-c1ccccc1)c1ccccc1" , give its measured absorption maximum value.
Response: 402

Query: For the molecule "CCOC(=O)c1cc(C(=O)OCC)c2ccc(N(C)C)cc2n1" , give its measured absorption maximum value.
Response: 430

Query: For the molecule "CN(C)c1ccc2c3c(ccc2c1)C(=O)CCC3" , give its measured absorption maximum value.
Response: 369

Query: For the molecule "Nc1cccc2c1C(=O)c1ccccc1-2" , give its measured absorption maximum value.
Response: 431

Query: For the molecule "C=CCNc1ccc2ccc3oc4cc(=O)ccc-4nc3c2c1" , give its measured absorption maximum value.
Response: 531

====

# EXPERIMENT: solvent given as SMILES
# STUDY CONDITIONS: in CCO
QUANTITY KIND: absorption maximum
Answers without a unit are incomplete; give the number and then its unit.

Example cases with answers are listed next.
{"CHEMICAL STRING": "Cc1ccccc1-c1c2ccc(=[N+]3CCOCC3)cc-2oc2cc(N3CCOCC3)ccc12", "absorption maximum": "556 nm"}
{"CHEMICAL STRING": "CC[N+](CC)=c1ccc2c(-c3ccccc3C(=O)O)c3c(=O)oc4c5c6c(cc4c3oc-2c1)CCCN6CCC5", "absorption maximum": "612 nm"}

Attention now shifts to the item below.
Query: For the compound "CC(=O)c1c2c(cc3cc(N(C)C)ccc13)CCC2" , give its measured absorption maximum value.
Response: 374 nm

====

# EXPERIMENT: solvent given as SMILES
# STUDY CONDITIONS: in CC#N
Output fulfilled for absorption maximum not less than 400 nm; output not fulfilled otherwise.

Solved entries:
{"CHEMICAL STRING": "CC1=[N+]2C(=C(c3ccccc3)c3c4c(c(C)n3[B-]2(F)F)CCc2ccccc2-4)C2=C1CCc1ccccc12", "ASSIGNED CLASS": "fulfilled"}
{"CHEMICAL STRING": "COC(=O)c1c(NC(C)(C)C)oc(-c2ccc(-c3ccccc3)cc2)c1C(=O)OC", "ASSIGNED CLASS": "not fulfilled"}
{"CHEMICAL STRING": "CCC1=C(C)C(=O)n2c1cc1c(CCC(=O)O)c(C)c(C)n1c2=O", "ASSIGNED CLASS": "fulfilled"}
{"CHEMICAL STRING": "COc1cc(N(c2ccccc2)c2ccc(C=C(C#N)C#N)c(OC)c2)ccc1C=C(C#N)C#N", "ASSIGNED CLASS": "fulfilled"}
{"CHEMICAL STRING": "N#C/C(=C\\c1ccc(Cl)cc1)c1nc(-c2ccccc2)c(-c2ccccc2)s1", "ASSIGNED CLASS": "not fulfilled"}
{"CHEMICAL STRING": "CNc1ccc2c(c1)C(=O)c1ccccc1-2", "ASSIGNED CLASS": "fulfilled"}
{"CHEMICAL STRING": "O=C(O)c1c2ccccc2nc2ccccc12", "ASSIGNED CLASS": "not fulfilled"}

Query: Check this compound for absorption maximum at or above 400 nm: "Cc1cc(C)cc(NC(=O)c2sc(Br)nc2C)c1"
Response: not fulfilled
